- Tested on: OVCAR-4 ovarian
- assay_comment: NCI-60 one-dose screen, 48 h (100 = growth as untreated, 0 = no growth, -100 = all killed)
- experimental_setup: 10 µM
Compounds without any hit were thinned out: in the full panel of roughly 83,000, 20% have a hit.
result_type: growth (%)
Unit % implied. Number only.

O=S(=O)(F)c1ccc(Cl)cc1 ... 115
COC(=O)C1C(O)C(C)C(O)C(C)/C=C\C=C(C)C(=O)Nc2c(C)c(OC(C)=O)c3c(c2O)C(=O)C(C)=C2OCOC(=C23)C(C)=CC(C)(O)C(O)C(C)C1O (stereo not given) ... 79.4
S=C=NCCc1ccccc1 ... 69.5
[O-][n+]1ccccc1S ... 36.2
[Cl][Hg][c]1ccc2ccccc2c1 ... -89.7

// fetch OVCAR-4 ovarian growth for COC(C(=O)C(O)C(C)O)C1Cc2cc3cc(OC4CC(OC(C)=O)C(OC5CC(O)C(OC)C(C)O5)C(C)O4)cc(O)c3c(O)c2C(=O)C1OC1CC(OC2CC(OC3CC(C)(O)C(OC(=O)C(C)C)C(C)O3)C(O)C(C)O2)C(O)C(C)O1 (stereo not given) -0.721

// fetch OVCAR-4 ovarian growth for O=C(CBr)Nc1ccc(Cl)cc1 89.2

// fetch OVCAR-4 ovarian growth for [Cl][Hg][c]1ccc(Cl)s1 11.2

// fetch OVCAR-4 ovarian growth for CC/C(=C/c1ccc(OC)cc1)[N+](=O)[O-] 62

====

- Tested on: HOP-92 NSCLC
- assay_comment: NCI-60 one-dose screen, 48 h (100 = growth as untreated, 0 = no growth, -100 = all killed)
- experimental_setup: 10 µM
Compounds without any hit were thinned out: in the full panel of roughly 83,000, 20% have a hit. The source made the active and inactive calls. The calls were made as follows: active = growth percent below 10; inactive = the rest.
Below is a list of entries, each paired with its recorded growth value.

ClCc1ccc2ccccc2n1 ... 79.8% (inactive)

Pending molecule:
Any idea what its growth is? The molecule is COC(C(=O)C(O)C(C)O)C1Cc2cc3cc(OC4CC(OC(C)=O)C(OC5CC(O)C(OC)C(C)O5)C(C)O4)cc(O)c3c(O)c2C(=O)C1OC1CC(OC2CC(OC3CC(C)(O)C(OC(=O)C(C)C)C(C)O3)C(O)C(C)O2)C(O)C(C)O1 (stereo not given) -16.5% (active)

====

- System: NCI-H460 lung
- assay_comment: NCI-60 one-dose screen, 48 h
- experimental_setup: 10 µM
The panel holds about 83,000 compounds, 20% with a hit somewhere; the sample as a whole holds those more often. Active and inactive are the calls of the source. How the source made its calls: active means growth percent below 10; inactive means the rest.
Respond using exactly one of the listed classes: 1.0 for active, 0.0 for inactive

C[CH2][Hg][S]c1ccccc1C(=O)O ... 0.0

Can you look up the reported call for CCCCCCCC[N+]12CN3CN(CN(C3)C1)C2 for me? 0.0

====

- System: SR leukemia
- assay_comment: NCI-60 one-dose screen, 48 h
- experimental_setup: 10 µM
- Method: Growth inhibition of the SR human tumor cell line is measured as a screen for anti-cancer activity. Cells are grown in 96 well plates and exposed to the test compound for 48 hours. Compounds are tested at a single concentration, which is 10^-5 M for most compounds. The reported endpoint is percent growth (GI% or GIPRCNT), where numbers from 0 - 100% represent growth inhibition, and numbers from -100% - 0 represent cell death. For example, a value of 40 represents 60% growth inhibition. […]
The panel holds about 83,000 compounds, 20% with a hit somewhere; the sample as a whole holds those more often. Active and inactive are the calls of the source. Rule for the calls: active = growth percent below 10; inactive = the rest.
Respond using exactly one of the listed classes: 1 = active, 0 = inactive

Worked examples, 5 compounds total:
COc1ccccc1[As]=[As]c1ccccc1OC (stereo not drawn) ... 1
NC(=O)c1cc([N+](=O)[O-])c(Cl)c([N+](=O)[O-])c1Cl ... 1
O=S(=O)(F)c1ccc(Cl)cc1 ... 0
CC(C)C1(NC(=O)C2CC3c4cccc5[nH]cc(c45)CC3N(C)C2)OC2(O)C3CCCN3C(=O)C(Cc3ccccc3)N2C1=O (stereo not drawn) ... 0
COC12C(COC(N)=O)C3=C(C(=O)C(C)=C(N)C3=O)N1CC1C2N1C (stereo not drawn) ... 1

Can you look up the reported call for O=[N+]([O-])c1ccc(Br)c([N+](=O)[O-])c1 for me? 0

Can you look up the reported call for COC(=O)C1C(O)C(C)C(O)C(C)/C=C\C=C(C)C(=O)Nc2c(C)c(OC(C)=O)c3c(c2O)C(=O)C(C)=C2OCOC(=C23)C(C)=CC(C)(O)C(O)C(C)C1O (stereo not drawn) for me? 0

Can you look up the reported call for CC1CCC2(OC1)OC1C(O)C3C4CCC5CC(OC6OC(CO)C(OC7OC(CO)C(O)C(OC8OCC(O)C(O)C8O)C7OC7OC(CO)C(O)C(OC8OC(CO)C(O)C(O)C8O)C7O)C(O)C6O)C(O)CC5(C)C4CCC3(C)C1C2C (stereo not drawn) for me? 1

Taken from PubChem BioAssay (NCI).
